- Study Target: T1, recombinant purified human IL-12 p70 (human, UniProt P29459 23-219)
- T1 sequence 1: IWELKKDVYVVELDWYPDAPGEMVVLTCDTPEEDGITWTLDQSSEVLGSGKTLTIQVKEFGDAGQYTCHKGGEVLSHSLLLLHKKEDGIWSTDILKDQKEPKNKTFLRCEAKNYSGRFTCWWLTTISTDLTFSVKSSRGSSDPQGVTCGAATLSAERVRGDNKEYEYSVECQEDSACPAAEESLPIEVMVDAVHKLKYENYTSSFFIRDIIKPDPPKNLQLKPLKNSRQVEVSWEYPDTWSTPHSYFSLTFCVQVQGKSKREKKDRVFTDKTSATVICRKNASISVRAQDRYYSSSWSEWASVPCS
- T1 sequence 2: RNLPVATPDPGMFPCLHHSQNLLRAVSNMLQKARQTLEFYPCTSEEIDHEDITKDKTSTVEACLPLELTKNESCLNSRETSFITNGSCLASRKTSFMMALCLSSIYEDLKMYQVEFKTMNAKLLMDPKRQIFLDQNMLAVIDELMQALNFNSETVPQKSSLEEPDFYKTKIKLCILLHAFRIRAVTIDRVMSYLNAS
- Protocol Summary: cell-based or functional assay
Average IC50 (nM) Human IL-12, PHA blast IFN-γ assay overview
State the answer as a number, implicitly in nM.

murine anti-human IL-12p40 monoclonal antibody 7G3 (antibody, V domains shown, Murine mAb) VH: EVQLQQSGAEFVRSGASVKLSCTASGLNIKDYYIHWVKQRPEQVLDWIGWIDPENGYSEYAPRFQDKATMTADTSSNTAYLHLSSLTSEDTAVYYCNPGELARYFDYWGQGTTLTVSS VL: DIVLSQSPATLSVTPGDSVSLSCRASQSISKNLHWYQQKSHESPRLLIKYTSQSISGIPSRFSGSGSGTDFTLSINSVETEDFGMYFCQQSISWPLTFGAGTKLELKR : 0.047

Now turn to the next binder.
Look up Average IC50 (nM) Human IL-12, PHA blast IFN-γ assay for this binder: murine anti-human IL-12p40 monoclonal antibody 3G7 (antibody, V domains shown, Murine mAb) VH: QVQLQQSGAELMKPGASVKISCKATGYTFNDYWIEWVKQRPGHGLEWIGGFSHGSGSTNYNEKFKGKATFTADSSSNTAYMQLSSLTSEDSAVYYCARRRFRGMDYWGQGTSVTVSS VL: SIVMTQTPKFLLVSAGDRVTITCKASQSVSNDVAWYQQKPGQSPKLLIYYASNRYTGVPDRFTGSGYGTDFTFTITTVQAEDLAVYFCQQDYSSPWSFGGGTKLEIKR
0.15
